System Under Test: T1, Bicoid DBD-GST (Bcd) (UniProt P09081 83-170)
T1 sequence: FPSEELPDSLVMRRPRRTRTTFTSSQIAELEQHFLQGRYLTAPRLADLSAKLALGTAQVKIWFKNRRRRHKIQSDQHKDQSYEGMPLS
Assay Explanation: competitive fluorescence anisotropy (HiP-FA); mean of replicates 3.961, 3.634; HiP-FA: 33 mM phosphate pH 7.0, 90 mM NaCl, 0.01% Tween 20, 0.1 mM DTT, 0.5% agarose; conventional titration and EMSA: 20 mM Tris-acetate pH 7.0, 50 nM (sic) NaCl, 0.01% Tween-20, 0.1 mM DTT
Test Parameters: protein: recombinant; tags: N-terminal GST; blunt, G:G mismatch at position 6
Reported Endpoint: Kd (nM)
Numeric only. Scale: nM

Tell me measured Kd for Bcd competitor 31 (T11C) (dsDNA) DNA 1: TCGACGGTAATCCCCA DNA 2: TGGGGATTACGGTCGA please.
3.8

Cited source for all entries: paper PMC5913336
